# key: entry, value: pIC50
# Study System: recombinant, pre-activated GST-JNK2 (Homo sapiens)
# Sequence (P45984 whole entry): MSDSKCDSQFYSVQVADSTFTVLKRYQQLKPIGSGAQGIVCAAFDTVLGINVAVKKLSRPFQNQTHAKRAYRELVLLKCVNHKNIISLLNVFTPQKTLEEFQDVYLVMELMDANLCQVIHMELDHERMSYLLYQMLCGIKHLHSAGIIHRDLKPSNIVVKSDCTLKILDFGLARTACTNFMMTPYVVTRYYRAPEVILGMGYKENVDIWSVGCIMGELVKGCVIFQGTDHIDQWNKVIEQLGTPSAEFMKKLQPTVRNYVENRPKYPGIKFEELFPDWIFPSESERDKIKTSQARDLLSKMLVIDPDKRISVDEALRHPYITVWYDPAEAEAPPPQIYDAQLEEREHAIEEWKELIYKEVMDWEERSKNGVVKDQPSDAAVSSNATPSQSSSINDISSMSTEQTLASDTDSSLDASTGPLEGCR
# Assay Overview: JNK2 enzyme assay (SPA, GST-c-Jun phosphorylation)
# Run Parameters: 2 μM ATP, 120 min at R.T
# Description: JNK2 and 3 enzyme assay: […] […] After incubation for 60 minutes at RT, beads are sedimented by centrifugation at 1500×g for 5 minutes, resuspended in 200 μl of PBS containing 5 mM EDTA, 0.1% Triton X-100 and 50 μM ATP and the radioactivity measured in a scintillation β counter, following sedimentation of the beads as described above. […]
Reminder that pIC50 means the negative base-10 logarithm of the concentration expressed in mol/L.

- Compound: "N#CC(c1ccnc(NCCO)n1)c1nc2ccccc2s1 (centres unmarked)"
  Study System: "recombinant, pre-activated GST-JNK2 (Homo sapiens)"
  pIC50: 5.74
- Compound: "CSc1nccc(C(C#N)c2nc3ccccc3s2)n1 (centres unmarked)"
  Study System: "recombinant, pre-activated GST-JNK2 (Homo sapiens)"
  pIC50: 6.01
- Compound: "COc1nccc(C(C#N)c2nc3ccccc3s2)n1 (centres unmarked)"
  Study System: "recombinant, pre-activated GST-JNK2 (Homo sapiens)"
  pIC50: 6.35
- Compound: "N#CC(c1ccnc(Cl)n1)c1nc2ccccc2s1 (centres unmarked)"
  Study System: "recombinant, pre-activated GST-JNK2 (Homo sapiens)"
  pIC50: 6.30
- Compound: "N#CC(c1ccnc(OCc2ccccc2)n1)c1nc2ccccc2s1 (centres unmarked)"
  Study System: "recombinant, pre-activated GST-JNK2 (Homo sapiens)"
  pIC50: 6.60

Q. Given N#CC(c1ccnc(NCCc2c[nH]cn2)n1)c1nc2ccccc2s1 (centres unmarked) , respond with its pIC50.
A. 6.68

Q. Given COc1ccc(Oc2nccc(C(C#N)c3nc4ccccc4s3)n2)cc1 (centres unmarked) , respond with its pIC50.
A. 6.52

Q. Given CNc1nccc(C(C#N)c2nc3ccccc3s2)n1 (centres unmarked) , respond with its pIC50.
A. 5.64
